Data credit: paper PMC8781960

# System: S102 (Thai liver cancer)
# Assay explanation: In vitro cytotoxicity (MTT)
# Details: at 50 µg/mL; inactive (IC50 ≥ 50 µg/mL)
Marks after values point to notes of the source that are not given here.
Observation type: %C percentage cytotoxicity S102

N#Cc1ccc(Nc2cc(Oc3ccc(C#N)cc3)nc3ccccc23)cc1 = %C = 0.0 ^c
Cc1cc(C#N)cc(C)c1Oc1cc(Nc2ccc(C#N)cn2)nc2ccccc12 = %C = 0.0 ^c
Cc1cc(C#N)cc(C)c1Oc1cc(Nc2ccc(C#N)cc2)nc2ccccc12 = %C = 0.0 ^c

* * *

# Target system: HIV-1 RT (Human immunodeficiency virus type 1 group M subtype B, UniProt P03366)
# Construct: The reaction mixture consisted of template/primer complex, 2′-deoxy-nucleotide-5′-triphosphates (dNTPs), and RT enzyme in lysis buffer; purchased Roche Applied Science, Mannheim, Germany
# Assay explanation: HIV-1 RT inhibition assay (Roche RT kit, colorimetric ELISA)
# Assay type: biochemical
# Details: read-out: Inhibitory activities (%) against HIV-1 RT
Observation type: inhibition at 1 µM

# example entries with known answers
N#Cc1ccc(Oc2cc(Oc3ccc(C#N)cc3)c3ccccc3n2)cc1 = 30.9%
N#Cc1ccc(Nc2cc(Oc3ccc(C=O)cc3)nc3ccccc23)cc1 = 29.6%

Attention now shifts to the item below.
Provide the documented inhibition at 1 µM with HIV-1 RT (Human immunodeficiency virus type 1 group M subtype B, UniProt P03366) as the system for Cc1cc(/C=C\C#N)cc(C)c1Oc1cc(Nc2ccc(C#N)cn2)nc2ccccc12 [Compound 10b-cis]
29.4%

* * *

# Tested on: H69AR (lung cancer, multidrug resistant)
# Assay explanation: In vitro cytotoxicity (MTT)
# Format: cell-based, human
# Details: human, 48 h, 50 µg/mL
Marks after values point to notes of the source that are not given here.
Observation type: %C percentage cytotoxicity H69AR

Cc1cc(/C=C\C#N)cc(C)c1Oc1cc(Nc2ccc(C#N)cc2)nc2ccccc12 [Compound 9b-cis] = %C = 0.0 ^c
N#Cc1ccc(Nc2cc(Oc3ccc(C#N)cc3)nc3ccccc23)cc1 = %C = 21.0 ^c
N#Cc1ccc(Oc2cc(Oc3ccc(C#N)cc3)c3ccccc3n2)cc1 = %C = 21.0 ^c
Cc1cc(C#N)cc(C)c1Oc1cc(Nc2ccc(C#N)cc2)c2ccccc2n1 = %C = 0.0 ^c
